system.tested: GlyT1 transporter (Homo sapiens, UniProt P48067)
Construct: endogenously expressing the GlyT1 transporter; host or cells: SK-N-MC human neuroblastoma cells
Sequence (P48067 whole entry): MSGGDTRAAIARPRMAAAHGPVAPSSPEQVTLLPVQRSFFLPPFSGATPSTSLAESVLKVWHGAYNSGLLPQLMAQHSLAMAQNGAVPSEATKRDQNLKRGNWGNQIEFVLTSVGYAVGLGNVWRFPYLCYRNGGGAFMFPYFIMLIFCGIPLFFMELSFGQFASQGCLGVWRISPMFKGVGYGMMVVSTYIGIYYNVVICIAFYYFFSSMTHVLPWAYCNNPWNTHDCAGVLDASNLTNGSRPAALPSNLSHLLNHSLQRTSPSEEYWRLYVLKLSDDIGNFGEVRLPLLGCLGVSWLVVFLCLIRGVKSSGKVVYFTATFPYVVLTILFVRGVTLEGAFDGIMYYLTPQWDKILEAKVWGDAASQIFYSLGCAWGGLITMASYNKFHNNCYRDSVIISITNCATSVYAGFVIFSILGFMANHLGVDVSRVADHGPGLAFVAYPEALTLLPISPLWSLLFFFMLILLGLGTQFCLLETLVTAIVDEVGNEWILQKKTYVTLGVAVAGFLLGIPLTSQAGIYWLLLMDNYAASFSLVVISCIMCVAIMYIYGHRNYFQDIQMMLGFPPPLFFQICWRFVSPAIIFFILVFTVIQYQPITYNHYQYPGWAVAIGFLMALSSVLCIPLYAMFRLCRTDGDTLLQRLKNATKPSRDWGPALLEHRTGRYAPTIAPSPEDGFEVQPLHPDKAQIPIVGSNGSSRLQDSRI
measurement.notes: GlyT1 assay: 3H-glycine uptake into SK-N-MC cells (Cytostar-T format)
Format: cell-based
experimental.context: glycine uptake in human SK-N-MC cells endogenously expressing GlyT1; 500 nM glycine, 1% DMSO, signal recorded over 60 min
observable: IC50 (nM)
Just the number in nM, nothing appended.

Cc1nc(C23CC2CN(C(=O)c2cc(S(C)(=O)=O)ccc2O[C@H](C)C(F)(F)F)C3)no1 (single isomer, unassigned) [Example 42] = 6
CC(C)Oc1ccc(S(C)(=O)=O)cc1C(=O)N1CC2CC2(c2nc(C(F)(F)F)co2)C1 (single isomer, unassigned) [Example 111] = 257

Pending compound:
Req: I am curious: what IC50 value has been reported for CCS(=O)(=O)c1ccc(O[C@@H](C)C(F)(F)F)c(C(=O)N2CC3CC3(c3nccc(C(F)(F)F)n3)C2)c1 (mixture of isomers) [Example 73] ?
Resp: 9
